target: SMARCA4-HiBiT (Homo sapiens); construct: SMARCA4-HiBiT knock-in Hela monoclonal cell (CS3023226); host or cells: HeLa monoclonal knock-in line (CRISPR HiBiT knock-in at the endogenous locus, heterozygous); assay: SMARCA4 HiBiT degradation assay in HeLa cells; format: cell-based; conditions: 18 hours incubation, read-out: HeLa-HiBit-SM4 DC50
Sequence (P51532 whole entry): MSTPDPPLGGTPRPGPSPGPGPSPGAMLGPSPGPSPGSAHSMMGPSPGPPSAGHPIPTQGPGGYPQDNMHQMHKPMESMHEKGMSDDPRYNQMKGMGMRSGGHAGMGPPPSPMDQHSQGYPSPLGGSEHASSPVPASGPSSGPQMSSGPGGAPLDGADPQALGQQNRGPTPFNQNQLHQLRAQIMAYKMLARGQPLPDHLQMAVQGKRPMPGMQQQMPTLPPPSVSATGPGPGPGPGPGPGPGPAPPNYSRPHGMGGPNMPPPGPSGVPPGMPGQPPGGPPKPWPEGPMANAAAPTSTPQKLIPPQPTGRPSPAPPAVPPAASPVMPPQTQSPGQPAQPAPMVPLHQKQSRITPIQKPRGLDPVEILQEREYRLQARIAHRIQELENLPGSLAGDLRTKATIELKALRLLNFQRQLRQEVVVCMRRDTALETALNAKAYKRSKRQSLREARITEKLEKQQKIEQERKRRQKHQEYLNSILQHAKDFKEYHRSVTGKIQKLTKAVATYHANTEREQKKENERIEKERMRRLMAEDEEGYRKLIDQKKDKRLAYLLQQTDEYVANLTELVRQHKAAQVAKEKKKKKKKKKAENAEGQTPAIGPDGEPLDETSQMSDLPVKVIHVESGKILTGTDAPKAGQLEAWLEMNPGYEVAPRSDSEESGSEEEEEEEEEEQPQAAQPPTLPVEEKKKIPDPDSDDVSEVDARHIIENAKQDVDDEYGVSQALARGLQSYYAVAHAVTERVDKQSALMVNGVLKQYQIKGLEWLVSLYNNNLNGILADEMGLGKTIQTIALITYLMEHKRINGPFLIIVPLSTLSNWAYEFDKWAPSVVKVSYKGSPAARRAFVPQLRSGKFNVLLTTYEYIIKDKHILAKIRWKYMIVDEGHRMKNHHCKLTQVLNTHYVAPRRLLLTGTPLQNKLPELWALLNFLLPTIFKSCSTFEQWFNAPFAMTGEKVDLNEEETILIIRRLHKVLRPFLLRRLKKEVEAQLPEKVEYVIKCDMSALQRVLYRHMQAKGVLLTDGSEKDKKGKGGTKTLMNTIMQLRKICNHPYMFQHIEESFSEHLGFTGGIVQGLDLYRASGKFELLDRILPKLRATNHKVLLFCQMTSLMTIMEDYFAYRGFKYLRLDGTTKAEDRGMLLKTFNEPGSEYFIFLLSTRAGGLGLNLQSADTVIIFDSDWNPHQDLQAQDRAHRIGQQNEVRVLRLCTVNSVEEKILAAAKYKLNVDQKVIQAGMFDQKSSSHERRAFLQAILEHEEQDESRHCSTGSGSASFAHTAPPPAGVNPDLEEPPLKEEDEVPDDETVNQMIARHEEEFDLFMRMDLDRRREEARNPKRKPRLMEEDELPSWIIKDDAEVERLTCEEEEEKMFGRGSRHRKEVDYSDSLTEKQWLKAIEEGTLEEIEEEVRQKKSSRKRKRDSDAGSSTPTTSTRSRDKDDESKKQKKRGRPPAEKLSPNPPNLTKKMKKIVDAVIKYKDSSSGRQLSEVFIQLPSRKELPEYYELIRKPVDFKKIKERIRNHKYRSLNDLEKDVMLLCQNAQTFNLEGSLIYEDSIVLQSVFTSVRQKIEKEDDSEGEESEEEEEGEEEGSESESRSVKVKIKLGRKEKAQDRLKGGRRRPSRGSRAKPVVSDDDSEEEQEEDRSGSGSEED
Form field: DC50 (one value per entry).
recordedEndpoint: DC50

- O=C1CCC(N2Cc3ccc(N4CCC(CN5CCN(C(=O)N6CCN7c8cc(-c9ccccc9O)nnc8NC[C@H]7C6)C6(CC6)C5)CC4)cc3C2=O)C(=O)N1 (stereo partly drawn): < 10 nM
- O=C1CCC(N2C(=O)c3ccc(N4CCC(CN5C[C@@H]6[C@H](C5)[C@@H]6CN5CCN6c7cc(-c8ccccc8O)nnc7NC[C@H]6C5)CC4)cc3C2=O)C(=O)N1 (stereo partly drawn): < 10 nM
- O=C1CCC(N2C(=O)c3ccc(N4CCC(O)(CN5C[C@@H]6[C@@H](CN7CCN8c9cc(-c%10ccccc%10O)nnc9NC[C@H]8C7)[C@@H]6C5)CC4)cc3C2=O)C(=O)N1 (stereo partly drawn): < 10 nM
